B1: ZNF263 (parent)
chain: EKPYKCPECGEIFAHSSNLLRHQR

Variants of: B1
Assay: protein stability index of a GFP-peptide fusion (GPS, HEK-293T) (PSI 1-6); higher = more stable;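 also: lentivirally expressed fusions sorted by FACS into six bins by GFP to DsRed ratio, PSI derived from sequencing read proportions per bin multiplied by bin number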
Conditions: c terminus: a fixed tail appended
Response key: 1 means protein stability index >= 3; 0 means protein stability index < 3.

- R24C: 1
- E11P: 0
- G10S: 0
- N18A: 1
- F13L: 0
- P7W: 0
- I12D: 0
- Y4K: 0
- I12P: 0
- K5R: 0
- H15Y: 0
- F13Q: 0
- F13P: 0
- E1V: 0
- P7A: 0
- R24H: 1
- E8D: 1
- C6P: 1
- P7V: 0
- L20E: 0
- S16F: 1
- E8Y: 0
- P3C: 0
- E8Q: 0
- F13W: 0
- H22K: 0
- F13V: 0
- Q23C: 0
- K5P: 0
- L20Y: 0
- E1H: 0
- A14N: 0
- C9H: 0
- A14F: 0
- E8T: 0
- R24L: 1
- E1G: 0
- E8I: 0
- H15T: 1
- Q23E: 0
- L19Y: 0
- L20K: 0
- N18M: 0
- A14T: 0
- I12V: 0
- Q23F: 0
